# experiment: Quantitative High-Throughput drug screen in 47 multiple myeloma cell lines against the NCATS MIPE library collection: RPMI8226_ATCC cell viability assay (AID 1919871); also: nearly all actives have a fitted effect of over 30% in size
# condition.info: RPMI8226 myeloma viability, CellTiter-Glo ATP luminescence, 48 h; series mostly up to 45.8 µM
Results filed as inconclusive are left out. Active and inactive are the calls of the source. Calls follow the shape of the dose curve; as a rule, active = well fitted cell-killing curve with a large enough effect; inconclusive = small, poorly fitted or top-dose-only effect, or effect the other way; inactive = no such curve, though single readings can be large or run the other way.
Use one of these outcomes when replying: 1 = active, 0 = inactive

compound: CCCc1nc2c(C)cc(-c3nc4ccccc4n3C)cc2n1Cc1ccc(-c2ccccc2C(=O)O)cc1
class: 0
--
compound: CC(C)(C)NCC(O)c1ccc(O)c(CO)c1 (stereo unspecified)
class: 0
--
compound: Oc1ccc(C2CNCCc3c2cc(O)c(O)c3Cl)cc1 (stereo unspecified)
class: 0
--
compound: CCOc1ccc(Cc2cc([C@@H]3O[C@H](CO)[C@@H](O)[C@H](O)[C@@H]3O)ccc2Cl)cc1
class: 0
--
compound: Cc1csc(NC(=O)c2sc3nc4c(c(C(F)(F)F)c3c2N)CCC4)n1
class: 1
--
compound: CC1(C)CNc2cc(NC(=O)c3cccnc3NCc3ccncc3)ccc21
class: 1

Returns: the outcome recorded for "CC(=O)Oc1ccccc1C(=O)O" in this assay.
0

Returns: the outcome recorded for COc1cc(Oc2ccnc3cc(OC)c(OC)cc23)ccc1NC(=O)NC(C)c1nccs1 (stereo unspecified) in this assay.
1

Returns: the outcome recorded for Cc1ccccc1C(OCCN(C)C)c1ccccc1 (stereo unspecified) in this assay.
0

Returns: the outcome recorded for "c1ccc(-c2nn3c(c2-c2ccnc4cc(OCCN5CCOCC5)ccc24)CCC3)nc1" in this assay.
1

Returns: the outcome recorded for "CCc1cc(Nc2nccc(-c3c(-c4ccc(OC)c(C(=O)Nc5c(F)cccc5F)c4)nc4ccccn34)n2)c(OC)cc1N1CCC(N2CCN(S(C)(=O)=O)CC2)CC1" in this assay.
1
